Tested on: MDA-MB-468 breast
PROTOCOL NOTES: NCI tumour cell line growth inhibition, 48 h; in the data active = GI50 below about 0.43 µM; inactive = the rest
Give your call using only these classes: Yes for active, No for inactive

STRUCTURE NOTATION	GROUP
COc1ccc(N(CC(=O)NCCC[Te]c2ccccc2)C(=O)c2ccccc2)cc1	No

Moving on to another molecule below.
Asked: Hello, I am checking results. What call was entered for COc1cc(C(=O)c2ccc3c(c2)OCO3)cc(OC)c1OC ?
Given back: No

###

Tested on: MDA-MB-468 breast
PROTOCOL NOTES: NCI tumour cell line growth inhibition, 48 h
Assign TGI to each entry below.
Answers are plain numbers, in µM.

Here is how some compounds turned out for TGI.
COMPOUND	TEST RESULT
CC(C)(C)NC(C1=CC(C)(C)c2ccccc2C1=O)c1ccccc1 (stereo not given)	1.66
CN1CCc2c(sc3ncnc(N/N=C/c4cccc(Cl)c4Cl)c23)C1	10.6

# context switch: different compound, same TGI
Asked: Look up and report measured TGI for this entry: CCOc1cccc(/C=N/NC(=O)c2ccc(Nc3ccnc(C(F)(F)F)c3)cc2)c1O
Given back: 2.96

###

Test system: MDA-MB-468 breast
PROTOCOL NOTES: NCI tumour cell line growth inhibition, 48 h
So I've got a bunch of molecules here, and I need their log10(TGI) values.
Heads up: the numbers are on a log10 scale; they represent TGI in µM.

Here are 4 molecules together with their reported answers.
MOLECULE	TEST RESULT
COc1ccc2nc(-c3cc(-c4cc(OC)c(OC)c(OC)c4)n[nH]3)[nH]c2c1	0.70
CC1=CC(=NC(=O)CBr)C=C/C1=N\S(=O)(=O)c1ccccc1	0.90
C[n+]1c(/C=C\c2ccc(Cl)cc2)ccc2ccccc21	0.92
CCN(CC)CCCC(C)Nc1cnc(C(=O)Nc2ccc(Cl)c3cccnc23)cn1 (stereo unspecified)	0.54

# ---- query molecule ----
Asked: Give log10(TGI) for Cn1cc(-c2nc(-c3c[nH]c4ncccc34)cs2)c2cc(F)ccc21
Given back: -0.14

###

Answer each item with its documented GI50.
Tested on: MDA-MB-468 breast
PROTOCOL NOTES: NCI tumour cell line growth inhibition, 48 h

Some entries whose results are on file:
STRUCTURE NOTATION	TEST RESULT
C[C@@H]1CN(C(=O)c2ccc(NC(=O)c3cc(O[C@H](C)c4c(Cl)ccc(F)c4Cl)c(N)nn3)cc2)C[C@H](C)N1	2510 nM
O=c1c2cccc(Cl)c2sc2c(NCCCNCCO)nc3ccccc3c12	1190 nM
Cn1cc(-c2nc(-c3c[nH]c4ncccc34)cs2)c2cc(F)ccc21	69 nM
COc1ccc2oc3c4[nH]c5ccccc5c4c4c(c3c2c1)C(=O)N(C(=O)OC(C)(C)C)C4=O	2840 nM

The following molecules each have a reported value; give each one's GI50.
1. N#C/C(=C\c1ccc(-c2ccc(Cl)cc2)o1)C(=O)Nc1ncc(Cc2ccc(Cl)cc2)s1
2. CN(C)c1ccc(N2Cc3ccccc3OC3=C2C(=O)c2c(O)ccc(O)c2C3=O)cn1
3. O=[N+]([O-])c1ccc(Br)c([N+](=O)[O-])c1

Given back:
1: 2380 nM; 2: 169 nM; 3: 1670 nM

Provide the reported GI50 of each entry below, same order.
1. Cn1cncc1[C@@](N)(c1ccc(Cl)cc1)c1ccc2c(c1)c(-c1cccc(Cl)c1)cc(=O)n2C
2. COc1cc(-c2nc(Nc3nc4ccccc4[nH]3)nc(N)c2C#N)cc(OC)c1OC

Given back:
1690 nM
1390 nM

The following molecules each have a reported value; give each one's GI50.
1. CC[C@H](C)[C@H]1NC(=O)[C@@H](N[C@](C)(O)[C@@H](N)CC(C)C)[C@@H](C)OC(=O)[C@H](Cc2ccc(OC)cc2)N(C)C(=O)[C@@H]2CCCN2C(=O)[C@H](CC(C)C)NC(=O)[C@@H](C)C(=O)[C@H](C(C)C)OC(=O)C[C@@H]1O
2. CCOc1c(Br)cc(C2C(C(=O)OC)=CN(C)C=C2C(=O)OC)cc1OC
3. C[n+]1c(/C=C\c2ccc(Cl)cc2)ccc2ccccc21

Given back:
1. 21.7 nM
2. 37700 nM
3. 2360 nM

Asked: Fill in: GI50 on MDA-MB-468 breast, entry COc1ccc2c(c1)C(=O)/C(=C/c1cccc(OCC(=O)Nc3nc4c(s3)CCCC4)c1)O2
Given back: 188 nM
